Assay: Human HepG2 cell viability assay in 384 well format
Assay type: toxicity, cell-based
Set-up: dose 125 nL, time 70.5 hour; concentration not given beside the values
Conditions: HepG2 cells, read-out: Inhibition
ENDPOINT: cytotoxicity at 70.5 h (%)

Cc1nccc(N[C@H]2CN(C(=O)CN3CCOCC3)C[C@@H]2C(C)C)n1 ... -1.67
CCCS(=O)(=O)N1CC(=O)N(Cc2cccc(OC)c2OC)CC(O)C1 (stereo not drawn) ... 9.04
Cc1ccc2c(c1)C(NC(=O)N(C)C)CC21CCN(C)CC1 (stereo not drawn) ... -3.53
CCn1cc(S(=O)(=O)NC(=O)CCc2c[nH]c3ccccc23)cn1 ... -0.706
CCn1cc(CN(C)C(=O)c2cccc(CCC(C)(C)O)c2)cn1 ... -3.4
Cc1c(NC(=O)NC2CN3CCC2CC3)cccc1C(=O)N1CCCC1 (stereo not drawn) ... 37.5
Cc1ccc(-c2nnc(CN3CCCCC3Cn3cncn3)o2)cc1 (stereo not drawn) ... -12.6
O=C(O)c1ccc2c(CN3CCCC3)c[nH]c2c1 ... 5.69
Cc1c(Cl)cccc1NC(=O)CCNc1ccc(C#N)cn1 ... -6.94
CN1CCC(CNC(=O)c2cccc(NC(N)=O)c2)c2ccccc21 (stereo not drawn) ... -2.27
Cc1nn(C)c(C)c1CN(C)C(=O)c1cccc(CCC(C)(C)O)c1 ... -0.259
CCc1nccn1-c1cncc(C2CCCN2Cc2cccnc2)n1 (stereo not drawn) ... -5.1
CCOC(=O)CNC(=O)C1CN(C(=O)c2cnccn2)C1 ... -5.07
COc1ccsc1C(=O)Nc1cc(CN2CCOCC2)ccc1C ... 0.784
CCn1c(N)nc2cc(C(=O)NCCc3ccccc3F)cnc21 ... -28.6
N#Cc1cccc(S(=O)(=O)N2CC(CC(=O)O)c3ccccc32)c1 (stereo not drawn) ... -4.94
CC(CN1CCOCC1)NC(=O)NCc1ccc(Cl)s1 (stereo not drawn) ... -7.44
Nc1nc2c(c(=O)[nH]1)CCN(C(=O)c1cccc3nccnc13)C2 ... -13.2
Cc1cc(S(=O)(=O)N2CCC(N3CCC(O)C3)CC2)c(Cl)cc1Cl (stereo not drawn) ... -4.51
CC(C(=O)N1CCC(Nc2cccnn2)CC1)n1cccn1 (stereo not drawn) ... 20.4
O=C(c1ccnc(N2CCOC(C(F)(F)F)C2)c1)N1CCCC1 (stereo not drawn) ... 8.43
COCCN1C[C@@H](c2ccccc2)[C@@]2(CCN(CC(=O)N(C)C)C2=O)C1 ... -9.6
Cn1cc(CN2CC[C@H](O)[C@@H]2Cc2ccccc2)cn1 ... -0.0718
Cc1ccccc1-c1cncc(C2CCN(C)CC2)n1 ... -14.3
Cc1ccc(C(CNCc2c[nH]nc2C)N(C)C)cc1 (stereo not drawn) ... 11.2
O=C(c1cccnc1)N1CCc2c(COCC3CC3)cncc2C1 ... -2.77
O=c1[nH]c2nc(N3CCSCC3)ncc2c(=O)n1-c1cccc(F)c1 ... -0.348
CNC(=O)CCc1cc(C2CCNCC2)nc(C)n1 ... -5.9
Fc1ccc(-c2n[nH]cc2CNCCn2cccn2)cc1 ... -4.83
CCOCC(=O)NCC(CC)(OC)c1ccccc1 (stereo not drawn) ... -12.4
Cc1nc(C2CCCN(C(=O)c3cccc4c3OCO4)C2)no1 (stereo not drawn) ... -4.51
C1CCC(NCC2(N3CCOCC3)CCSC2)C1 (stereo not drawn) ... 14.2
CCN(CCCN1CCOCC1)C(=O)c1cnn(CC)c1 ... 2.38
